Assignment: determine reported z-score for the given compounds.
# method: basal HepG2 mitochondrial membrane potential changes, profiling panel, cell-based, JC-1 fluorescence, 24 h, 100 nL compound (AID 1167); note: test concentration not given here
# assay.conditions: higher = more signal
Numbers only.

Here are 10 compounds together with their reported answers.
O=c1cccc(CCc2ccccc2)o1; -0.903
COCCOC(=O)N1C(=O)[C@@]2(c3cc(C#CCNC(N)=O)ccc31)[C@H](c1ccc(O)cc1)N1[C@H](c3ccccc3)[C@H](c3ccccc3)OC(=O)[C@H]1[C@@H]2C(=O)NC[C@H](O)c1ccccc1; -1.48
CCCCCCc1nc(CCCc2cc3c(c(CCCCCC)n2)[Si](C(C)C)(C(C)C)OC3)cc2c1[Si](C(C)C)(C(C)C)OC2; 0.535
Cc1ccc(S[C@]2(C(=O)NCc3ccccc3)CC(=O)N(Cc3ccccc3Cl)[C@@H]2c2ccc(CO)cc2I)cc1; -0.44
[N-]=[N+]=NCc1ccccc1C[C@]1(C(=O)O)N=C(c2ccc(OCCCO)cc2)O[C@H]1c1ccccc1CN=[N+]=[N-]; -2.38
CCOC(=O)[C@H]1C/C=C/C[C@H](C(=O)OCC)C(=O)O[C@H]2[C@@H](OC)O[C@H](CO)[C@@H](OC(=O)Nc3ccc4c(c3)OCO4)[C@@H]2OC1=O; -3.1
C=CCNC(=O)[C@H]1[C@@H]2C(=O)O[C@@H](c3ccccc3)[C@@H](c3ccccc3)N2[C@@H](c2ccc(O)cc2)[C@]12C(=O)N(C(=O)OCCOC)c1ccc(C#CCCO)cc12; 0.0998
COCCOC(=O)N1C(=O)[C@@]2(c3cc(C#CCNC(N)=O)ccc31)[C@H](c1ccc(OCCO)cc1)N1[C@H](c3ccccc3)[C@H](c3ccccc3)OC(=O)[C@H]1[C@@H]2C(=O)N1CCc2cc(OC)c(OC)cc2C1; -1.04
CC(C)C(O)C1C=CC2C(=O)N(c3ccccc3)C(=O)C2N1Nc1ccc(C#N)cc1 (stereo not drawn); -0.421
CCOC(=O)[C@H]1C[C@H]2O[C@@]23C[C@H]1C(=O)N1CCCC1[C@@H]3O[Si](C)(C)C(C)(C)C (stereo partly drawn); -0.625

Provide reported z-score for each item, in the same order as listed.
1. C=C[C@H](COC(C)=O)N(Cc1ccc(OC(C)=O)c(OC)c1)S(=O)(=O)c1ccc(Br)cc1
2. COCC1=C2[C@@H](CCc3ccccc3)OB(O)C[C@@H]2[C@@H]2C(=O)N(Cc3ccccc3)C(=O)[C@@H]2C1
3. CC(C)C[C@@H]1NC(=O)[C@H]2C[C@@H](C(=O)NCCCCCCNC(=O)CS)[C@@H](c3cccc(OCCO)c3)N2C1=O
4. CC(C)(C)N1CC=CC23O[C@@H]4/C=C\CCCOC(=O)C4[C@H]2C(=O)N(CCO)[C@@H]3C1=O (stereo partly drawn)
5. CCCCC=C[C@@H](NC(=O)c1ccc(C(=O)OC)cc1)c1ccccc1
6. COc1ccc(C(O)C2C=CC3C(=O)N(c4ccccc4)C(=O)C3N2Nc2ccc([N+](=O)[O-])cc2)cc1OCc1ccccc1 (stereo not drawn)
7. NCCCCCCNC(=O)[C@H]1C[C@H]2C(=O)NCC(=O)N2[C@H]1c1cccc(OCCO)c1

1: 0.43; 2: -1.59; 3: -0.569; 4: -0.388; 5: -1.33; 6: -0.608; 7: 2.48

Request the reported z-score associated with O=C/C=C/c1ccc(Cl)cc1
1.32

###

# tested.system: Fibroblast growth factor 2 (Homo sapiens)
# method: FGF2 binders on small-molecule microarrays, primary screen, biochemical, small-molecule microarray, 635/667 nm fluorescence (AID 1133)
# assay.conditions: small-molecule microarray binding, FGF2, fluorescence 635/667; higher = more signal
Decision: composite z-score >= -0.03 yields Condition met, all other cases yield Condition not met.

See these solved cases before continuing.
C=CC(=C)C1=CCO[C@@H]1[C@H]1CCCN1S(=O)(=O)c1ccccc1[N+](=O)[O-]; Condition met
CC(C)C[C@@H]1NC(=O)[C@H]2C[C@@H](C(=O)NCCCCCCNC(=O)CS)[C@@H](c3cccc(OCCO)c3)N2C1=O; Condition met
O=C1N(CCS(=O)(=O)c2ccccc2)Cc2ccccc2[C@H]2OC(c3ccc(OCCCO)cc3)=N[C@@]12CCS(=O)(=O)c1ccccc1; Condition met

Kindly determine if composite z-score recorded for CC(C)(C)OC(=O)CC[C@@]1(C(=O)NCCN2CCOCC2)N=C(c2ccc(OCCCO)cc2)O[C@@H]1c1ccccc1 is above or exactly -0.03.
Condition met

Check this compound for composite z-score at or above -0.03: CC(C)NC(=O)[C@@H]1c2ccccc2C(=O)N(Cc2ccccc2Cl)[C@H]1c1ccc(CO)cc1
Condition not met

Reported composite z-score at or above -0.03? CC(C)Cc1ccc(CN2CC[C@@H](NS(=O)(=O)c3ccccc3)C2)cc1
Condition not met

# bool: composite z-score of COc1ccc(CCN2C(=O)[C@@]3(Cc4ccccc42)c2ccccc2C(=O)N(Cc2ccccc2Cl)[C@H]3c2ccc(CO)cc2)cc1 >= -0.03
Condition not met

###

Exercise: state measured z-score for each of the molecules provided.
# method: adipocyte viability effects, profiling panel, cell-based, 3T3-L1 adipocytes, calcein-AM fluorescence, 48 h, basal (AID 1163); note: test concentration not given here
# assay.conditions: 3T3-L1 adipocytes viability, higher = more signal

Hi! Can you tell me z-score for each of these molecules?
1. CN(C)CCCCCCNC(=O)[C@H]1C[C@H]2C(=O)N[C@@H](CCCCN)C(=O)N2[C@H]1c1ccc(O)cc1
2. CCN(CC)c1ccc(N2CC=CC34O[C@@H]5C=CCCOC(=O)C5[C@H]3C(=O)N(CCCCCO)[C@@H]4C2=O)cc1 (stereo not given in full)

[0.71, 0.132]

I'm hoping you can list z-score for every molecule here, please.
1. O=C1C2C=CC(C(O)c3ccc(B(O)O)cc3)N(Nc3ccccc3)C2C(=O)N1c1ccccc1 (stereo not given)
2. C=CCC(OC(C)=O)[C@@H]1[C@@H](N(Cc2cccc3ccccc23)C(=O)c2cccc3ccccc23)c2cc(OCCCO)ccc2N1C(=O)c1ccc2ccccc2n1 (stereo not given in full)
3. COCCOC(=O)N1C(=O)[C@@]2(c3cc(C#CCNC(N)=O)ccc31)[C@H](c1ccc(O)cc1)N1[C@H](c3ccccc3)[C@H](c3ccccc3)OC(=O)[C@H]1[C@@H]2C(=O)Nc1nc2ccccc2s1
4. CC(C)OC(=O)CC(=O)CC(O)c1ccc(C#N)cc1 (stereo not given)

1: -0.305; 2: 0.161; 3: 0.663; 4: 0.612

Items follow; give z-score for each.
1. C=C(CCCC)C(=O)CC[C@H](OC(=O)c1cccnc1)c1cccc(OCCO)c1
2. O=C1O[C@H](c2ccccc2)[C@H](c2ccccc2)N2[C@H]1[C@@H](C(=O)NC[C@H](O)c1ccccc1)[C@]1(C(=O)Nc3ccc(C#CCCO)cc31)[C@H]2c1ccc(O)cc1
3. Cc1ccc([C@H]2[C@H](C(=O)O)[C@H](Sc3ccccc3)[C@@H](C(C)C)N2S(=O)(=O)c2ccc(C)cc2)cc1
4. O=C1O[C@@H](c2ccccc2)[C@@H](c2ccccc2)N2[C@@H](c3ccc(O)cc3)[C@]3(C(=O)Nc4ccc(C#CC5=CCCCC5)cc43)[C@@H](C(=O)O)[C@H]12

0.136
1.09
-0.594
0.369

Please give z-score, item by item, for the list that follows.
1. C=CCN1C(=O)[C@]2(O[C@H](CCO)[C@@H]([Si](C)(C)c3ccc(OC)cc3)[C@@H]2C)c2cc(NC(=O)[C@H](C)O)ccc21
2. O=C(O)[C@H]1C[C@H]2C(=O)NCC(=O)N2[C@H]1c1ccc(O)cc1
3. CCCCCN1CC=CC23O[C@@H]4/C=C\CCC(C)OC(=O)C4[C@H]2C(=O)N(CCCCCO)[C@@H]3C1=O (stereo not given in full)
4. CCCN1C(=O)[C@@]2(CCC(=O)OC(C)(C)C)N=C(c3ccc(OCCCO)cc3)O[C@H]2c2ccccc21

1: 0.449; 2: 0.108; 3: 1.56; 4: 1.24

So what's the measured z-score for this one? C=CCNC(=O)[C@H]1[C@@H]2C(=O)O[C@@H](c3ccccc3)[C@@H](c3ccccc3)N2[C@@H](c2ccc(O)cc2)[C@]12C(=O)N(C(=O)OCCOC)c1ccc(C#CCCO)cc12
0.482

###

# Test system: wheat germ agglutinin (Triticum aestivum), Alexa647-labelled
# method: wheat germ agglutinin binders on compound microarrays, profiling panel, artefact control for SMM control-protein annotation, biochemical, small-molecule microarray, 635/667 nm fluorescence (AID 1140);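 note: score merges 667 nm feature emission with signal to noise over triplicate slides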
# assay.conditions: WGA-A647 binding, 635 nm fluorescence, higher = more signal
reported.metric: composite z-score
Answers are plain numbers.

Please review the following examples before continuing.
COc1ccc(C(=O)Nc2cccc(CN3C(=O)[C@@]4(O[C@@H](CCn5cc(CCO)nn5)[C@H]([Si](C)(C)c5ccc(OC)cc5)[C@H]4C)c4ccccc43)c2)cc1; 0.701
COc1ccc(CCNC(=O)[C@@]2(Sc3ccc(C)cc3)CC(=O)N(Cc3ccccc3Cl)[C@@H]2c2ccc(CO)cc2I)cc1; 0.593
CCCC[C@H]1OB(O)C[C@H]2C1=C(C)C[C@H]1C(=O)N(Cc3ccccc3)C(=O)[C@H]12; -0.144

Need composite z-score for each of these compounds.
1. CC(=O)Nc1cc(Br)ccc1C(=O)O
2. C[C@]1(C(=O)NCc2ccccc2)c2ccccc2C(=O)N(Cc2cc(F)cc(C(F)(F)F)c2)[C@H]1c1ccc(CO)cc1
3. CCC[C@@H]1C=C(C(=O)O)[C@H](c2ccc(C)cc2)N1S(=O)(=O)c1ccc(C)cc1

0.625
-0.566
0.945

src = PubChem BioAssay
